Experiment description: Clearance in rhesus
Type: ADME, organism-based, Macaca mulatta
Experimental setup: rhesus monkey, in vivo
Endpoint: clearance (L/h/kg)
Kindly provide the numeric value in L/h/kg only, without the unit symbol.

Determine from records and report clearance for `Cc1cc(-c2nncc3c(C(C)(C)C)c(OCc4ncnn4C)nn23)no1`
1.98

---

Measured on: GABA-A receptor; anion channel (Rattus norvegicus) (UniProt O09028+P15431+P18506+P18508+P19969+P20236+P23574+P23576+P28471+P28473+P30191+P62813+P63079+P63138+Q91ZM7+Q9ES14)
Experiment description: Receptor occupancy in vivo by displacement of [3H]Ro 15-1788 binding from rat brain GABAA receptor at 3 mg/kg, ip
Assay type: functional, organism-based
Set-up: dose 3 mg/kg
Give Activity for every item shown.

Determine from records and report Activity for `Cc1cc(-c2nncc3c(C(C)(C)CO)c(OCc4ncnn4C)nn23)no1`
21%

Determine from records and report Activity for `Cn1ncnc1COc1nn2c(-c3cc(CO)on3)nncc2c1C(C)(C)C`
12%

Determine from records and report Activity for `Cc1cc(-c2nncc3c(C(C)(C)C)c(OCc4ncnn4C)nn23)no1`
> 95%

Determine from records and report Activity for `Cn1ncnc1COc1nn2c(-c3cc(CO)on3)nncc2c1C(C)(C)CO`
8%

---

Experiment description: Half life in dog
Type: ADME, organism-based, Canis lupus familiaris
Experimental setup: in vivo
Endpoint: half-life (min)
Kindly provide the numeric value in min only, without the unit symbol.

Determine from records and report half-life for `Cc1cc(-c2nncc3c(C(C)(C)C)c(OCc4ncnn4C)nn23)no1`
30

---

Experiment description: Binding affinity to GABA alpha5 receptor
Design: species or system Homo sapiens
Endpoint: Ki (nM)
Kindly provide the numeric value in nM only, without the unit symbol.

Determine from records and report Ki for `Cn1ncnc1COc1nn2c(-c3cc(CO)on3)nnc(O)c2c1C(C)(C)C`
370

Determine from records and report Ki for `Cn1ncnc1COc1nn2c(-c3cc(CO)on3)nncc2c1C(C)(C)C`
1.1

Determine from records and report Ki for `Cc1cc(-c2nnc(O)c3c(C(C)(C)C)c(OCc4ncnn4C)nn23)no1`
700

Determine from records and report Ki for `Cc1cc(-c2nncc3c(C(C)(C)C)c(OCc4ncnn4C)nn23)no1`
1.4

Determine from records and report Ki for `Cn1ncnc1COc1nn2c(-c3cc(CO)on3)nncc2c1C(C)(C)CO`
21

Determine from records and report Ki for `Cc1cc(-c2nncc3c(C(C)(C)CO)c(OCc4ncnn4C)nn23)no1`
9.4

---

Measured on: GABA A receptor alpha-1/beta-1/gamma-2 (Homo sapiens) (UniProt P14867+P18507+P18505)
Experiment description: Efficacy against human GABA alpha-1 receptor expressed in mouse fibroblast L(tk-) cells by whole cell patch clamp method
Assay type: functional, cell-based
Kindly return label 1 if reported Efficacy is no lower than -20%; return label 0 if it is lower.

Evaluate `Cn1ncnc1COc1nn2c(-c3cc(CO)on3)nncc2c1C(C)(C)C` : Efficacy at minimum -20%?
label 1

Evaluate `Cc1cc(-c2nncc3c(C(C)(C)C)c(OCc4ncnn4C)nn23)no1` : Efficacy at minimum -20%?
label 1

Evaluate `Cc1cc(-c2nnc(O)c3c(C(C)(C)C)c(OCc4ncnn4C)nn23)no1` : Efficacy at minimum -20%?
label 1

Evaluate `Cc1cc(-c2nncc3c(C(C)(C)CO)c(OCc4ncnn4C)nn23)no1` : Efficacy at minimum -20%?
label 0

Evaluate `Cn1ncnc1COc1nn2c(-c3cc(CO)on3)nncc2c1C(C)(C)CO` : Efficacy at minimum -20%?
label 0

The reported numbers originate from ChEMBL document CHEMBL1149460.
